Source: ChEMBL document CHEMBL2062376

Study target: Epidermal growth factor receptor (Homo sapiens)
Sequence (P00533 whole entry): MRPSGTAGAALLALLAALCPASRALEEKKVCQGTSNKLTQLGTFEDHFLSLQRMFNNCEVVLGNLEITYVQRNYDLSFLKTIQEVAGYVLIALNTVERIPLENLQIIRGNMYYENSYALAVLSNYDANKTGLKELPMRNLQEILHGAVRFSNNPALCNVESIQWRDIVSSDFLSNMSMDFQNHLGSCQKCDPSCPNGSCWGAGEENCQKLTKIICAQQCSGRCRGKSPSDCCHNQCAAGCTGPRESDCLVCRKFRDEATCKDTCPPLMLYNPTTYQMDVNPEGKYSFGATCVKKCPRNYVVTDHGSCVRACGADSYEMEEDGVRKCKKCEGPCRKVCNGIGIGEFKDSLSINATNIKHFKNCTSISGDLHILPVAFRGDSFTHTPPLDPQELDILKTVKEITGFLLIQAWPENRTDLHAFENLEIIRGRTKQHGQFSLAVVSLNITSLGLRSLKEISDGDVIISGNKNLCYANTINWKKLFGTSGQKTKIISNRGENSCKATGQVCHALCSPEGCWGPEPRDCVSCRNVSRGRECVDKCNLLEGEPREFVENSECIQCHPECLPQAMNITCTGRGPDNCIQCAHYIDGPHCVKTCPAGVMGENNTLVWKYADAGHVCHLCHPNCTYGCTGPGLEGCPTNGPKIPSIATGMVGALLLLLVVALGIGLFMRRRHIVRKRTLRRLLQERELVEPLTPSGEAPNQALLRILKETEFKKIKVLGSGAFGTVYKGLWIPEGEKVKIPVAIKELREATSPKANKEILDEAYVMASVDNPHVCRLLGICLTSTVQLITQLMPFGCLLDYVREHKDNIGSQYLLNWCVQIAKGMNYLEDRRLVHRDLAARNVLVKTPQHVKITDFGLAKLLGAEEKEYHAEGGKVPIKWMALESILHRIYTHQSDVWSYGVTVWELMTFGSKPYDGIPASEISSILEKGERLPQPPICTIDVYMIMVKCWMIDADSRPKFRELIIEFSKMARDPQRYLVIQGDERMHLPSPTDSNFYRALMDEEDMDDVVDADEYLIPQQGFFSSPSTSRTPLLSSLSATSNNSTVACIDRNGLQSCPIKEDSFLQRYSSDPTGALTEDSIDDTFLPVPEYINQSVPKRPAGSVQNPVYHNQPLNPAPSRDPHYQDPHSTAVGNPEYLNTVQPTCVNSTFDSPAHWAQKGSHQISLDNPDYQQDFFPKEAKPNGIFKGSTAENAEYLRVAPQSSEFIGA
Parameter: IC50 (µM)
API: value field is a number in µM; no unit string.

# annotated cases, reported IC50 shown
Compound smiles | IC50, µM
C[C@H](Nc1ncnc2cc3oc(=O)n(CCCN4CCOCC4)c3cc12)c1ccccc1 | 3.7
Cc1c(OCC(F)(F)F)ccnc1COc1ccc(Nc2ncnc3cc4oc(=O)n(CCCN5CCOCC5)c4cc23)cc1 | 7.8
Cc1cc(C)cc(Nc2ncnc3cc4oc(=O)n(CCCN5CCOCC5)c4cc23)c1 | 75

# value lookup — system Epidermal growth factor receptor (Homo sapiens), readout IC50, item O=c1oc2cc3ncnc(Nc4ccc5[nH]ncc5c4)c3cc2n1CCCN1CCOCC1
0.12

# value lookup — system Epidermal growth factor receptor (Homo sapiens), readout IC50, item O=c1oc2cc3ncnc(Nc4ccc(OCc5ccccn5)cc4)c3cc2n1CCCN1CCOCC1
1.7

# value lookup — system Epidermal growth factor receptor (Homo sapiens), readout IC50, item C[C@@H](Nc1ncnc2cc3oc(=O)n(CCCN4CCOCC4)c3cc12)c1ccccc1
4.5

# value lookup — system Epidermal growth factor receptor (Homo sapiens), readout IC50, item CC(C)(C)c1ccc(Nc2ncnc3cc4oc(=O)n(CCCN5CCOCC5)c4cc23)cc1
79

# value lookup — system Epidermal growth factor receptor (Homo sapiens), readout IC50, item O=c1oc2cc3ncnc(Nc4ccc(OCc5ccc(Cl)cc5)cc4)c3cc2n1CCCN1CCOCC1
0.99

# value lookup — system Epidermal growth factor receptor (Homo sapiens), readout IC50, item Cc1c(OCC(F)(F)F)ccnc1COc1cccc(Nc2ncnc3cc4oc(=O)n(CCCN5CCOCC5)c4cc23)c1
0.099
